# test.target: motilin receptor (Oryctolagus cuniculus, UniProt G1T803)
# Sequence (G1T803 1-400): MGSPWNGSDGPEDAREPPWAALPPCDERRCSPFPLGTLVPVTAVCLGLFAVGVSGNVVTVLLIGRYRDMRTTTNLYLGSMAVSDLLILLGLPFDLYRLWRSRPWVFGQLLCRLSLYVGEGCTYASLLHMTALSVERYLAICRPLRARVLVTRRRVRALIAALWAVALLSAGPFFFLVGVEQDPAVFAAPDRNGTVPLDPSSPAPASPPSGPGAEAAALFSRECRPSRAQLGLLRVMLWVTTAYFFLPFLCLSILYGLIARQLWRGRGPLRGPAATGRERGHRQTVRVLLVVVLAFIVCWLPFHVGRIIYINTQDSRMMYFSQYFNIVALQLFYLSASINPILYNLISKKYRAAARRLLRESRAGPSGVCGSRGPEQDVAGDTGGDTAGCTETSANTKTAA
Where a SMILES comes first, the peptide text is derived from it. [ ]: non-standard residue; d: D form. NMeTyr(3-tBu) = CN[C@@H](Cc1ccc(O)c(C(C)(C)C)c1)C(=O)O; NMePhe(4-F) = CN[C@@H](Cc1ccc(F)cc1)C(=O)O; Phe(4-F) = N[C@@H](Cc1ccc(F)cc1)C(=O)O; NMetBuAla = CN[C@@H](CC(C)(C)C)C(=O)O; NMeV = CN[C@H](C(=O)O)C(C)C
metric.name: IC50 (nM)

[A] CN(C(=O)[C@@H](N)Cc1ccc(F)cc1)[C@@H](CC(C)(C)C)C(=O)N(C)[C@@H](Cc1ccc(O)c(C(C)(C)C)c1)C(N)=O [Example 148] (H-[Phe(4-F)]-[NMetBuAla]-[NMeTyr(3-tBu)]-NH2)
[B] CN(C(=O)[C@@H](N)Cc1ccc(F)cc1)[C@@H](Cc1ccc(F)cc1)C(=O)N(C)[C@@H](Cc1ccc(O)c(C(C)(C)C)c1)C(N)=O [Example 157] (H-[Phe(4-F)]-[NMePhe(4-F)]-[NMeTyr(3-tBu)]-NH2)
[C] CCNC(=O)[C@H](Cc1ccc(O)c(C(C)(C)C)c1)N(C)C(=O)[C@H](C(C)C)N(C)C(=O)[C@H](Cc1ccc(F)cc1)NC [Example 105] (H-[NMePhe(4-F)]-[NMeV]-[NMeTyr(3-tBu)]-NHEt)
[D] CCN(C(=O)[C@H](C(C)C)N(C)C(=O)[C@@H](N)Cc1ccc(F)cc1)[C@@H](Cc1ccc(O)c(C(C)(C)C)c1)C(=O)NC
[E] CCNC(=O)[C@H](Cc1ccc(O)c(C(C)(C)C)c1)N(CC)C(=O)[C@H](C(C)C)N(C)C(=O)[C@H](Cc1ccc(F)cc1)NCC
Your job: order these 5 records by IC50, ascending. State the ranking by listing the labels in the requested order. E, C, D, A, B

[a] CCN[C@@H](Cc1ccc(F)cc1)C(=O)N(C)[C@H](C(=O)N(CC)[C@@H](Cc1ccc(O)c(C(C)(C)C)c1)C(=O)NC)C(C)C
[b] CC(C)[C@@H](C(=O)N[C@@H](Cc1ccc(O)c(C(C)(C)C)c1)c1ncno1)N(C)C(=O)[C@@H](N)Cc1ccc(F)cc1
Just curious, which one has the larger IC50 reading, a or b ? # respond with the chosen item's label a
(a: 3.6 nM, b: 0.52 nM)

Cited source: patent US7553969B1
